Test: Pharmacokinetics in dog (oral capsule, plasma LC-MS/MS)
Format: in vivo
Conditions: female, dog, plasma, po, 0.3 mg/kg, female dogs, 0.3 mg/kg oral, gelatin capsule with lactose hydrate, plasma 15β-hydroxy-osaterone acetate; read-out: Cmax (maximum plasma concentration)
Procedure: For each sample of the crystalline polymorphic form A obtained in Example 1 and the crystalline polymorphic form B obtained in Comparative Example 1, the sample was mixed at a dose of 0.3 mg/kg with 100 mg of lactose hydrate (manufactured by DFE Pharma), and the mixture was filled with a gelatin capsule (manufactured by Matsuya Corporation, MM, size: No. 2) to prepare a capsule preparation. […]
outcome_measure: Cmax (ng/mL)
Write the answer as a number in ng/mL, unit excluded.

Prompt: Given the entry CC(=O)O[C@]1(C(C)=O)C[C@@H](O)[C@H]2[C@@H]3C=C(Cl)C4=CC(=O)OC[C@]4(C)[C@H]3CC[C@@]21C [Crystalline polymorphic form B, reference compound] , report its measured Cmax.
Response: 128

Where these numbers come from: patent US10508130B2
